The measurements presented in this section are drawn from paper PMC9571063.

system: Human skin fibroblasts; assay: cytotoxic assay, nuclei count (Hoechst, HCS); format: cell-based; details: summary of Table S2
Property name: toxicity towards fibroblasts

# Compound, Property name, Meas value
measured = [
    ("Cc1ccc(-n2cc(COc3cccc4cnc(Nc5ccccc5)nc34)nn2)c([N+](=O)[O-])c1", "toxicity towards fibroblasts", "non-toxic"),
    ("O=[N+]([O-])c1cc(CO)ccc1-n1cc(COc2cccc3cnc(Nc4cccc(Cl)c4)nc23)nn1 [12e]", "toxicity towards fibroblasts", "moderate toxicity"),
    ("O=[N+]([O-])c1cc(Br)ccc1-n1cc(COc2cccc3cnc(Nc4cccc(Cl)c4)nc23)nn1 [12d]", "toxicity towards fibroblasts", "moderate toxicity"),
    ("Cc1ccc(-n2cc(COc3cccc4cnc(Nc5cc(Cl)cc(Cl)c5)nc34)nn2)c([N+](=O)[O-])c1", "toxicity towards fibroblasts", "non-toxic"),
]
